- target-entity: T1, HER2ECDHis (human, UniProt P04626 23-653, biotinylated in the cross-block ELISA (sites not given))
- T1 construct: range 1-653; expressed in HEK-293F; also called soluble HER2; biotinylated HER2ECDHis
- method-summary: ELISA; competitor 091
Each entry below carries its reported % binding vs no competitor.
Numeric answer only, unit % assumed.

| binder | obs-value |
| --- | --- |
| HuMab 098 (antibody, V domains shown, also called TH1014-098; PC1014-098) VH: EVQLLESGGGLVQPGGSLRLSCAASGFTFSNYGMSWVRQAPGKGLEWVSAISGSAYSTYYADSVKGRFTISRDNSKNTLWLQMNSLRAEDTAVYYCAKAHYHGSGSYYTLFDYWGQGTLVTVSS VL: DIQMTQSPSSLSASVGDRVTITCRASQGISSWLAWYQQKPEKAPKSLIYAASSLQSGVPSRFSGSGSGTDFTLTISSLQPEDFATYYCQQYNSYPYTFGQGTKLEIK | 104 |
| HuMab 129 (antibody, V domains shown) VH: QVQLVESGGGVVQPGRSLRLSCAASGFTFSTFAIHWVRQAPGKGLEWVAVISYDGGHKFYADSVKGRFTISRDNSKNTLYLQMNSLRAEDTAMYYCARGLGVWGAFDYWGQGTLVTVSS VL: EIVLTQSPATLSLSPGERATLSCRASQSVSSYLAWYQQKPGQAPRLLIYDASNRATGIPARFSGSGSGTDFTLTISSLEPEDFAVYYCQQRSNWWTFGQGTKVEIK | 76 |

Let's switch to this binder now.
Ask: Would you mind telling me what % binding vs no competitor value was observed for HuMab 153 (antibody, V domains shown) VH: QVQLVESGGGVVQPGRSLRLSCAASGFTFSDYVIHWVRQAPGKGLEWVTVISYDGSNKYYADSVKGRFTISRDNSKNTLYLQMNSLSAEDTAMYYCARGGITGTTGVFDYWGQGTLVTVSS VL: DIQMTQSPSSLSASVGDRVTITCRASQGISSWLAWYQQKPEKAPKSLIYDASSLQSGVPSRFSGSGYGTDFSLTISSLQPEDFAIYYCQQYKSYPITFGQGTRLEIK ?
Reply: 102

Attribution: patent US20170369590A1
